// provenance: patent US20100184759A1

Entries and their melting point

- compound: "c1ccc(-n2ncc3c2CCOC3CN2CCCCC2)cc1 (stereo not drawn) [Example 1]"
  melting point [°C]: 91
- compound: "CN1CCN(CC2OCCc3c2cnn3-c2ccccc2)CC1 (stereo not drawn) [Example 5]"
  melting point [°C]: 66
- compound: "c1ccc(N2CCN(CC3OCCc4c3cnn4-c3ccccc3)CC2)cc1 (stereo not drawn) [Example 4]"
  melting point [°C]: 151
- compound: "c1ccc(-n2ncc3c2CCOC3CN2CCOCC2)cc1 (stereo not drawn) [Example 3]"
  melting point [°C]: 115
- compound: "CN(C)CC1OCCc2c1cnn2-c1ccccc1 (stereo not drawn) [Example 7]"
  melting point [°C]: 103
- compound: "c1ccc(-n2ncc3c2CCOC3CN2CCCC2)cc1 (stereo not drawn) [Example 6]"
  melting point [°C]: 89
